- System tested: OLIG1
- Protocol summary: pooled miR-30 sensor sort-seq; sequence = guide strand; also: reference of the scale not given here
- Condition: shRNA
Give label 1 when the value for sensor-assay potency score (higher = more potent) is at least -0.8. Give label 0 when it is less.

Example entries begin here.
primary_sequence=TTGTTGATTCTGTACACCGTCA answer_label="label 1"
primary_sequence=TAACGTCTGTAACAAATCGAAA answer_label="label 0"

input: Is sensor-assay potency score (higher = more potent) at least -0.8? Consider TTACCTATTTTAGTAAATCGGG
output: label 1

input: Is sensor-assay potency score (higher = more potent) at least -0.8? Consider TACAGCTCTCCAAACAGCTGGT
output: label 1

input: Is sensor-assay potency score (higher = more potent) at least -0.8? Consider TTGCTTTCTAAGAAACCCCCAG
output: label 1

input: Is sensor-assay potency score (higher = more potent) at least -0.8? Consider TACCTATTTTAGTAAATCGGGA
output: label 0

input: Is sensor-assay potency score (higher = more potent) at least -0.8? Consider TATGTAGCTCTTCAACTGCAAG
output: label 0

input: Is sensor-assay potency score (higher = more potent) at least -0.8? Consider TTTAAGAGCGAAAACTCTCTGC
output: label 1

input: Is sensor-assay potency score (higher = more potent) at least -0.8? Consider TCGGCTACTACCAACAACCAAA
output: label 0

###

- System tested: FZD8
- Protocol summary: pooled miR-30 sensor sort-seq; sequence = guide strand
- Condition: shRNA
Give label 1 when the value for sensor-assay potency score (higher = more potent) is at least -0.2. Give label 0 when it is less.

primary_sequence=ATAATTAAGACATTTCTTGTTT answer_label="label 1"
primary_sequence=TTGTAGTCCATGCACAGCGTGT answer_label="label 0"
primary_sequence=TTCTTGTAGTCCTCTAGGCAGA answer_label="label 0"
primary_sequence=TTATATCTGTTCTTACAGGGGT answer_label="label 1"
primary_sequence=TATCATGCTAATAGCAATCAAC answer_label="label 0"
primary_sequence=TATATCTGTTCTTACAGGGGTA answer_label="label 1"

Next:
input: Is sensor-assay potency score (higher = more potent) at least -0.2? Consider TAAGACACGGAGCTCGCCGTGC
output: label 0

###

- System tested: AADACL2
- Protocol summary: pooled miR-30 sensor sort-seq; sequence = guide strand
- Condition: shRNA
Observed property: sensor-assay potency score (higher = more potent)
Give bare numbers.

These recorded examples may help you get a feel for the data.
primary_sequence=TAAATGTACAAGTTTTAGCGAT system_tested=AADACL2 val=-0.754
primary_sequence=TTGTAACATACATAAGTCCATC system_tested=AADACL2 val=-1.14
primary_sequence=TTCAGCATCATTCTGCACCTGT system_tested=AADACL2 val=0.443
primary_sequence=TAACTGAGAATCATTGGCCAAC system_tested=AADACL2 val=-1.39

Moving on to another sequence below.
Reported sensor-assay potency score (higher = more potent) of TTGGCAAGTACAATCGTACTGG : 0.407

###

- System tested: CDKN2B
- Protocol summary: pooled miR-30 sensor sort-seq; sequence = guide strand
- Condition: shRNA
Observed property: sensor-assay potency score (higher = more potent)
Answers are plain numbers.

These recorded examples may help you get a feel for the data.
primary_sequence=AAACGGTTGACTCCGTTGGGAT val=-1.42
primary_sequence=TCATCCTGTGTAGTCTGCCTGC val=-0.705
primary_sequence=TTAACTGAGAGCCACTAGTTAT val=-1.26
primary_sequence=TTTACTGCATAAGTGCATCTAT val=0.135
primary_sequence=TGCACCGGTCGGGTGAGAGTGG val=-1.46

# return sensor-assay potency score (higher = more potent) for each item in the list
1. TTTTTCAGCAATCTTTTGGGAA
2. TTTTAGCATCTGTCGTCGCTTG
3. TAATTTACTGCATAAGTGCATC
4. TAGCATCTGTCGTCGCTTGCAC

output:
1. -0.00426
2. 0.0607
3. -0.823
4. -0.163

Given the sequence TAAGAAAATAAAGTCGTTGTGG and test system CDKN2B, the measured sensor-assay potency score (higher = more potent) is 0.511

###

- System tested: FBXW9
- Protocol summary: pooled miR-30 sensor sort-seq; sequence = guide strand
- Condition: shRNA
Observed property: sensor-assay potency score (higher = more potent)
Numbers only.

primary_sequence=TTCTCTTCCACCACTGGGTAGG system_tested=FBXW9 val=-0.729
primary_sequence=TTCTTCTCTTCCACCACTGGGT system_tested=FBXW9 val=-0.376
primary_sequence=TAAGGTCTTGATCAGAACCTGG system_tested=FBXW9 val=-0.161
primary_sequence=TCGCTTAGTGCCTAAGGTCTTG system_tested=FBXW9 val=-0.92
primary_sequence=TACTATTTCGCTTAGTGCCTAA system_tested=FBXW9 val=-0.65

# return sensor-assay potency score (higher = more potent) for each item in the list
1. TTGACGTTGCGATCTCGGGAGC
2. TAGATGGTCACCTTCTTGTCAT

output:
-1.12
-0.453

###

- System tested: PLA2G4A
- Protocol summary: pooled miR-30 sensor sort-seq; sequence = guide strand
- Condition: shRNA
Give yes (1) when the value for sensor-assay potency score (higher = more potent) is at least -0.3. Give no (0) when it is less.

Example entries begin here.
primary_sequence=TTTGCTTCCAAATAAGTCGGGA answer_label="yes (1)"
primary_sequence=TTTAAAGACATAGCACTCCTTC answer_label="yes (1)"
primary_sequence=TAGTTCTTCATTAATCTCCTCT answer_label="yes (1)"
primary_sequence=TTCTTCATTAATCTCCTCTGGC answer_label="yes (1)"
primary_sequence=TTGTCTGAAAGTCTTCTCCTGA answer_label="yes (1)"
primary_sequence=TAAAGCTGAATCACTCACCAAG answer_label="no (0)"

input: Is sensor-assay potency score (higher = more potent) at least -0.3? Consider TACAAGGTTGACATATACCAGG
output: no (0)

input: Is sensor-assay potency score (higher = more potent) at least -0.3? Consider TTTGATAGTCACTTCCAGCATC
output: yes (1)

input: Is sensor-assay potency score (higher = more potent) at least -0.3? Consider TAGTCAGTGAATAACATTCATA
output: no (0)

###

- System tested: C14orf181
- Protocol summary: pooled miR-30 sensor sort-seq; sequence = guide strand
- Condition: shRNA
Give T when the value for sensor-assay potency score (higher = more potent) is at least -0.4. Give F when it is less.

input: Is sensor-assay potency score (higher = more potent) at least -0.4? Consider TGCACTGCCGCTTCCGACCGGG
output: F

input: Is sensor-assay potency score (higher = more potent) at least -0.4? Consider AAAGTGAAAGTCTTCGGAGTGA
output: T

input: Is sensor-assay potency score (higher = more potent) at least -0.4? Consider TAGCTTGGAGGTGGTGGTGGGG
output: F

input: Is sensor-assay potency score (higher = more potent) at least -0.4? Consider TTCGGTTTTGTGCAAGGGGGAA
output: F

input: Is sensor-assay potency score (higher = more potent) at least -0.4? Consider TTAGCTTGGAGGTGGTGGTGGG
output: T

###

- System tested: TTLL4
- Protocol summary: pooled miR-30 sensor sort-seq; sequence = guide strand
- Condition: shRNA
Provide the reported sensor-assay potency score (higher = more potent) of each item.
One number for each entry.

These recorded examples may help you get a feel for the data.
primary_sequence=TTGCTAGTCTCTGATTTGCTGA val=-0.807
primary_sequence=TTAGCTTCTGATGCTCTCGAAT val=-0.842
primary_sequence=TTTATTGACACTGTAGTTGGTC val=0.947

# return sensor-assay potency score (higher = more potent) for each item in the list
1. TAGTTTTGACAACAACATCCTT
2. TTTTTATTGACACTGTAGTTGG
3. TTCTTCTGTATCTTCAGTCTCA
4. TCGCACATACATCTTGAGCAGG
5. TTGAGTATCACGTCATCCTTTG
6. AGTTTTGACAACAACATCCTTT

output:
-0.466
-0.76
0.119
-1.1
-0.629
-0.763

###

- System tested: TSPAN8
- Protocol summary: pooled miR-30 sensor sort-seq; sequence = guide strand
- Condition: shRNA
Provide the reported sensor-assay potency score (higher = more potent) of each item.

primary_sequence=AACAACAGAAGCATGCAGCGAC val=-0.179
primary_sequence=TATGAAAAACAACAGAAGCATG val=-1.79
primary_sequence=TATGTCTAGAAGATATCTGTGG val=-0.374
primary_sequence=TTAGATTTGAAAACAGCTCCTA val=0.475
primary_sequence=TTGAGAGTCATTGCTTACTCGT val=-0.804

Moving on to another sequence below.
Reported sensor-assay potency score (higher = more potent) of TAGGATACCTGTCGCCACCTGC : -0.685

###

- System tested: FNTB
- Protocol summary: pooled miR-30 sensor sort-seq; sequence = guide strand
- Condition: shRNA
Observed property: sensor-assay potency score (higher = more potent)
Numbers only.

These recorded examples may help you get a feel for the data.
primary_sequence=TTTCAGATAATGGAAGTGCTTC val=-0.367
primary_sequence=TTGACTGCTGCATATGTGGGTG val=-0.313
primary_sequence=TCCTCCTTCAAATCGCATCTGC val=-0.214
primary_sequence=TTTGCCTGTTCTATGGACGTGA val=0.213
primary_sequence=TTGTCGAAGGCCTCTTTTCAGA val=-1.02

# return sensor-assay potency score (higher = more potent) for each item in the list
1. TTAAGCTCCTCAAAACCTGGGA
2. AAGGTGTGGATACTGACCGGGT
3. TACTTTTGCCTGTTCTATGGAC

output:
-0.317
-0.0926
-0.547

Where do the numbers come from? From the OligoGym collection.
